assay: NCI Yeast Anticancer Drug Screen. Data for the cln2 rad14 strain (AID 165);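 also: 0% = growth equal to vehicle treated cultures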; conditions: S. cerevisiae cln2 rad14 strain, at 50.0 µM, active compounds read high
About 79,000 compounds went through this panel and 15% of them were active in at least one assay; those are over-represented in the sample as a whole.
So I've got a bunch of molecules here, and I need their growth inhibition values.
One number for each entry, in %.

Answer for every listed entry: what is its growth inhibition? The entries follow.
1. COc1ccccc1NC=O
2. O=C(c1ccccc1)C(C(c1ccc(Cl)cc1)N1CCOCC1)N1CCOCC1 (stereo not given)
3. c1ccc(CNCCCNCCCCNCCCNCc2ccccc2)cc1
4. COc1cc(O)c2c(=O)c(O)c(-c3ccc(O)c(O)c3)oc2c1
5. C=C1C(=O)O[C@H]2C[C@@H]1C(=O)C/C(C)=C/CC/C(C)=C/CC[C@@]2(C)OCSC
6. Brc1ccccc2cc(-c3ccccc3)nc1-2
7. O=[N+]([O-])c1ccc(Oc2cccc3ccccc23)c([N+](=O)[O-])c1

[16.8, 19.9, -10.3, 9.05, 26.9, 19.9, -82.5]

Answer for every listed entry: what is its growth inhibition? The entries follow.
1. O=C(/C=C\c1ccccc1)OC(c1ccccc1)c1ccc(Br)cc1 (stereo not given)
2. c1ccc2[nH]c3[nH]c4[nH]c5ccccc5[nH]c4[nH]c3[nH]c2c1

1: -3.95; 2: -6.2

Answer for every listed entry: what is its growth inhibition? The entries follow.
1. CC/C(=C\c1ccc(OC)cc1)c1ccc(OC)cc1
2. CCOC(=O)/C(C#N)=C1/Sc2c(ncn(/N=C/c3ccc(OC)cc3)c2=O)N1c1ccccc1
3. CCc1ccccc1OCc1ccccc1
4. O.[Cl][Co]([Cl])[Cl].c1c[nH]cn1.c1c[nH]cn1
5. CN(Cc1ccccc1)c1ccccn1
6. C1COC2(C1)CCCO2
7. COc1ccc(OC)c(C(=O)c2cccc(C(=O)c3cc(OC)ccc3OC)n2)c1

1: 4.75; 2: -45.3; 3: 6.9; 4: 1.95; 5: -2.05; 6: 3.5; 7: -21.8

Answer for every listed entry: what is its growth inhibition? The entries follow.
1. CCOC(=O)/C=C/n1c2ccccc2c(=O)c2cc(OC)ccc21
2. C1CCN(CCC2CCCCN2)CC1 (stereo not given)
3. CC(C(=O)c1ccc(Cl)cc1)C1=NC2NN(c3ccccc3)C(=O)C2=C1C(C)C(=O)c1ccc(Cl)cc1 (stereo not given)

1. 3.6
2. -33.2
3. -0.3

Answer for every listed entry: what is its growth inhibition? The entries follow.
1. COc1ccc(C2=C(c3ccccc3)C(C)(C)Oc3ccc4ccccc4c32)cc1
2. CCOC(=O)CC[C@H](NC(=O)c1nc[nH]c1[N+](=O)[O-])C(=O)OCC
3. CC1CN(C(=O)OCC23COC4(C)CCC(C)(OC2)N34)CC(C)O1 (stereo not given)
4. O=C(Nc1nncs1)c1ccncc1
5. COc1cc(/C=N/N=C(\N)NO)cc(Cl)c1O
6. COc1ccc(N2N=NN(C(C)C)/C2=C(/Cl)c2nnnn2-c2ccc(OC)cc2)cc1
7. Cc1cc(S(=O)(=O)Nc2nnc3c(Cl)cc(C(F)(F)F)cn23)c(S)cc1Cl

1. 14.2
2. 8.9
3. 13.4
4. 7.1
5. -19.2
6. 19.1
7. -14.3

Answer for every listed entry: what is its growth inhibition? The entries follow.
1. COc1ccc(NCc2cnc3nc(N)nc(N)c3c2C)cc1
2. NC(=S)c1ccc[n+]([O-])c1

16.5
-13.7

Answer for every listed entry: what is its growth inhibition? The entries follow.
1. NC(=O)c1n[nH]c(C2OC(CO)C(O)C2O)n1 (stereo not given)
2. S=C(NNC1=NCCN1)Nc1ccccc1
3. CC(=O)Nc1cc2c(cc1Cl)[nH]c(=O)c1ccccc12
4. CCOC(=O)NC(=O)c1cn(C2OC(COC(=O)CCCCCCCCC(=O)OCC3OC(n4cc(C(=O)NC(=O)OCC)c(=O)[nH]c4=O)C4OC(C)(C)OC34)C3OC(C)(C)OC32)c(=O)[nH]c1=O (stereo not given)
5. CCOC(=O)CCC(NC(=O)c1ccc(OCc2ccc3nc(OC)c(OC)nc3c2)cc1)C(=O)OCC (stereo not given)
6. CC1C(=O)CCC2C1(C)CCC1C2(C)CCC2(C)C3CC(C)(C)CCC3(C)CCC12C (stereo not given)

-15.7
3.15
-3.25
10.9
5
9.2

Answer for every listed entry: what is its growth inhibition? The entries follow.
1. CCOC(=O)C(CCC(C)=O)C(=O)OCC
2. O=c1[nH]c2cccnc2[nH]c1=O
3. Fc1ccc(-c2cc(-c3cc(-c4ccc(F)cc4)n[nH]3)[nH]n2)cc1
4. CCN(CC)CCNc1cc(OC)c(N)c2cccnc12
5. COc1ccc(/C(O)=C/c2nc3cccc([N+](=O)[O-])c3[nH]c2=O)cc1
6. CCc1cc(-c2ccc(OC)cc2)c(C#N)c(=S)n1C1OC(CO)C(O)C(O)C1O (stereo not given)
7. COC(=O)/C=C(/C(=O)OC)c1c(C)c(C)c2c(C)cc(C)cc(C)c1-2

[24.6, 4, 6.6, -6.75, -14.1, 0.7, 17.4]
